experiment: Example 2 plasma pharmacokinetics, normal renal function vs severe renal impairment; conditions: both, human, plasma, inhaled or intranasal, 160 mg, AUC0→t (Mean), severe renal impairment; single intranasal 160 mg cocaine HCl

{"columns": ["COMPOUND", "AUC(0-t)"],
 "data": [
  ["COC(=O)[C@H]1[C@@H](OC(=O)c2ccccc2)C[C@@H]2CC[C@H]1N2C [Cocaine, cocaine, reference compound]", "119 ng·h/mL"]
]}

###

assay: Example 2 plasma pharmacokinetics, normal renal function vs severe renal impairment; settings: both, human, plasma, inhaled or intranasal, 160 mg, AUC0→t (Median), normal renal function; single intranasal 160 mg cocaine HCl
EXPERIMENTAL ENDPOINT: AUC(0-t) (ng·h/mL)

{"columns": ["MOLECULE", "UNITS TEXT", "RECORDED MEASUREMENT"],
 "data": [
  ["COC(=O)[C@H]1[C@@H](OC(=O)c2ccccc2)C[C@@H]2CC[C@H]1N2C [Cocaine, cocaine, reference compound]", "ng·h/mL", 91.6]
]}

Values were extracted from patent US10413505B1.
